- TEST_TARGET: human TLR2 (Pam2CSK4, TLR2/6 agonist) in HEK-Blue hTLR2 cells (Homo sapiens)
- Construct: host or cells: HEK-Blue hTLR2 (HEK-293)
- Sequence (O60603 19-784 limits assumed): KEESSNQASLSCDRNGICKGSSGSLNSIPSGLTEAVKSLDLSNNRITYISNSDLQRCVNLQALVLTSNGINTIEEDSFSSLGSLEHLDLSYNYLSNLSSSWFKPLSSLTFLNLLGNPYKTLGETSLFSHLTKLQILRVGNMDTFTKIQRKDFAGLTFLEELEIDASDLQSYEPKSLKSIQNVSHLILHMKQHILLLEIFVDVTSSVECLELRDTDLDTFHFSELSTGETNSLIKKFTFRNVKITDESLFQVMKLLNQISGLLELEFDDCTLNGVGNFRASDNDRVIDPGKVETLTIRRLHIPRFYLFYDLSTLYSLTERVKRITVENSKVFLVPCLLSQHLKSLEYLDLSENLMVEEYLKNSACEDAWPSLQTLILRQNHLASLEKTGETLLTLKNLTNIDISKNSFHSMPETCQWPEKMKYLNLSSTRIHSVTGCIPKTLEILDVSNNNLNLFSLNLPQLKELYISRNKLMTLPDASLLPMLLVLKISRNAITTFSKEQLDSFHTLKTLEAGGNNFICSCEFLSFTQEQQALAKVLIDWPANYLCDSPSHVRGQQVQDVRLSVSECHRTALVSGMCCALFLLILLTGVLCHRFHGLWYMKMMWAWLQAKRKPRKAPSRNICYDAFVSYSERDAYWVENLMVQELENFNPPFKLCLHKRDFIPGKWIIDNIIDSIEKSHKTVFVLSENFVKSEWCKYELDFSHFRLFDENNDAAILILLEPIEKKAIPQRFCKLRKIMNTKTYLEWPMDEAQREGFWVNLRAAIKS
- PROTOCOL_DESCRIPTION: HEK-Blue hTLR2 antagonism assay (SEAP reporter) with Pam2CSK4 as agonist
- Format: cell-based
- COND: 2 h compound pre-incubation, approx. 3×EC50 Pam2CSK4, 18 h, SEAP OD 655 nm, background subtracted
- Experimental: Synthetic diacylated lipoprotein (Pam2CSK4, TLR2/6 agonist) and synthetic triacylated lipoprotein (Pam3CSK4, TLR1/2 agonist) were obtained from InvivoGen and were dissolved in endotoxin-free water to a concentration 1 mg/mL, vortexed until complete solubilization, and stored in aliquots at −20° C. […] On day 2, secreted alkaline phosphatase (SEAP) activity was detected in cell culture supernatants. […]
VALUE_KIND: IC50 (µM)

> print(dat)
                                   molecule  value.kind  units.label  reported
1  COc1ccc(/C=C/c2cc(C=O)c(O)c(OC)c2)cc1 [compound 1]        IC50           µM       3.2

A. O=C1CN(/N=C/c2cc(/C=C/c3ccc(N4CCCC4)cc3)cc(F)c2O)C(=O)N1 [compound 88]
B. O=Cc1cc(/C=C/c2ccc(N3CCOCC3)cc2)cc(F)c1O [compound 42]
Which value of IC50 is smaller, the one for A or the one for B ? When you have decided, please share the label of that item.
B

A. COc1cc(-c2cc3c(s2)CCN(C(=O)C2CC2)C3)cc(/C=C/C(=O)c2ccccc2)c1O [compound 73]
B. COc1cc(/C=C\c2ccc(N3CCCC3)cc2)cc(C=O)c1O [compound 51]
C. COc1cc(-c2cc3c(s2)CCN(C(=O)OC(C)(C)C)C3)cc(C=O)c1O [compound 12]
Rank the items in ascending order with respect to IC50. Respond with an ordered listing of the labels, as requested.
C, A, B
(C: 1.4 µM, A: 4.5 µM, B: 71.3 µM)

a. Oc1c(F)cc(/C=C/c2ccc(N3CCCC3)cc2)cc1/C=N/N1CCNCC1 [compound 96]
b. COc1cc(-c2cc3c(s2)CCN(C(=O)C2CC2)C3)cc(C(=O)/C=C/c2ccccc2)c1O [compound 74]
Among a and b , which shows a numerically higher IC50 result? When you have decided, please share the label of that item.
b
